Hey, just so you know, these numbers are from patent US4775681A.

Tested on: Candida albicans
Assay: Antifungal susceptibility, microbroth dilution MIC
Format: cell-based
Details: 24 h, strain 1579
Counter-ions that a name gives are not always drawn.
Assay readout: MIC (µg/mL)

C[C@@H]1[C@H](O)[C@@H](C)/C=C/C=C/C=C/C=C/C=C/C=C/C=C/[C@H](O[C@@H]2O[C@H](C)[C@@H](O)[C@H](N)[C@@H]2O)C[C@@H]2O[C@](O)(C[C@@H](O)C[C@@H](O)[C@H](O)CC[C@@H](O)C[C@@H](O)CC(=O)O[C@H]1C)C[C@H](O)[C@H]2C(=O)O [AMP-B, Amphotericin-B, reference compound]: 4

[I] CC(C)c1c(Br)c(Br)c(-c2ccc(F)cc2)n1CC[C@@H](O)C[C@@H](O)CC(=O)O (relative stereo) [Compound 1, monosodium salt]
[II] CCOC(=O)c1c(Br)c(-c2ccc(F)cc2)n(CC[C@H]2C[C@H](O)CC(=O)O2)c1C(F)(F)F (relative stereo)
[III] CC(=O)N1CCN(c2ccc(OCC3COC(Cn4ccnc4)(c4ccc(Cl)cc4Cl)O3)cc2)CC1 (centres unmarked) [Keto, Ketoconazole, reference compound]
[IV] CC(C)c1c(Cl)c(Cl)c(-c2ccc(F)cc2)n1CC[C@@H](O)C[C@@H](O)CC(=O)O (relative stereo) [Compound 3, monosodium salt]
INPUT: Order these by MIC, descending, and give the full ranking. Ranked list of labels, please, in the requested order.
OUTPUT: IV, II, I, III

* * *

System: Candida albicans
Test: Antifungal susceptibility, microbroth dilution MIC
Type: cell-based
Conditions: 24 h, strain 1577
Protocol: The antimicrobial susceptibilities of eleven strains of Candida albicans, two strains of Candida tropicans, and one strain each of Torulopsis glabrata and Cryptococcus neoformans to several representative compounds of the present invention were tested. For comparison, the known antifungal agents amphotericin-B and ketoconazole were also tested. […]
Where a name gives a salt, the structure may show the parent alone.
Assay readout: MIC (µg/mL)

CCOC(=O)c1c(Br)c(-c2ccc(F)cc2)n(CC[C@H]2C[C@H](O)CC(=O)O2)c1C(F)(F)F (relative stereo) [Compound 2]: 32
C[C@@H]1[C@H](O)[C@@H](C)/C=C/C=C/C=C/C=C/C=C/C=C/C=C/[C@H](O[C@@H]2O[C@H](C)[C@@H](O)[C@H](N)[C@@H]2O)C[C@@H]2O[C@](O)(C[C@@H](O)C[C@@H](O)[C@H](O)CC[C@@H](O)C[C@@H](O)CC(=O)O[C@H]1C)C[C@H](O)[C@H]2C(=O)O [AMP-B, Amphotericin-B, reference compound]: 8
CC(C)c1c(Cl)c(Cl)c(-c2ccc(F)cc2)n1CC[C@@H](O)C[C@@H](O)CC(=O)O (relative stereo) [Compound 3, monosodium salt]: 32
